Reference source for all entries: the supplement of paper PMC3545927

Molecular target: furin, P09958;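 also: purified furin at 1:10 enzyme:substrate in 50 mM HEPES pH 7.5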
Sequence (P09958 whole entry): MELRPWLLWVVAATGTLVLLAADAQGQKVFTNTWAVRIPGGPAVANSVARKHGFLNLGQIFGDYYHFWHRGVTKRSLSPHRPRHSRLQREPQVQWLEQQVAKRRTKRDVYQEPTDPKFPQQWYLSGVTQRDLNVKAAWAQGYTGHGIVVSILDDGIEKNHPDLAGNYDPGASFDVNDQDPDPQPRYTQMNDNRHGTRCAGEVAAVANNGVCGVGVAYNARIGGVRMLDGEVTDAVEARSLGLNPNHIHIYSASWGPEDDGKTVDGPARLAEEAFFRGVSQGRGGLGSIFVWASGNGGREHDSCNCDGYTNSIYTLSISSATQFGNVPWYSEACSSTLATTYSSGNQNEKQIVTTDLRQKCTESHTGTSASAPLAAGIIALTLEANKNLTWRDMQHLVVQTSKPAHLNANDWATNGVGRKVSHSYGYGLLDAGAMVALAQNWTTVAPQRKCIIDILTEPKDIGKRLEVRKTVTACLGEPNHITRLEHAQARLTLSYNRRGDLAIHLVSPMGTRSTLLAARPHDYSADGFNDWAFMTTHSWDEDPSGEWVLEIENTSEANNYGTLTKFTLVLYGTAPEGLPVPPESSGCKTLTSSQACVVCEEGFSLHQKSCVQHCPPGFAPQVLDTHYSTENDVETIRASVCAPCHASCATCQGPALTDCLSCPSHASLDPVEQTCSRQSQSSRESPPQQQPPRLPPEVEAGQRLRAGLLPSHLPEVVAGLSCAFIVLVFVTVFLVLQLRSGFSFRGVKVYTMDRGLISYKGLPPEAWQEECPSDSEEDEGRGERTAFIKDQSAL
Experiment: furin cleavage Z-score vs untreated control; higher = more cleavage, active = 3.5 or more, inactive = 1 or less, 8 variable residues between constant flanks
Conditions: 15 min
Some of the results follow. How many sequences the whole screen found active is unknown.
Valid outcomes are listed here; reply with one: label 1 = active, label 0 = inactive

| SEQ_TEXT | CLASS_LABEL |
| --- | --- |
| CATLPALSTGAGNASASA [HC501] | label 0 |

Hi team, can someone confirm the assay call for CARHKRLSYQAGNASASA [FS-3255] ?
label 0

Hi team, can someone confirm the assay call for CASIVYEAADAGNASASA [HC266] ?
label 0

Hi team, can someone confirm the assay call for CARRRRFVPVAGNASASA [FS-2786] ?
label 1

Hi team, can someone confirm the assay call for CASTPCSEHLAGNASASA [HC2532] ?
label 0

Hi team, can someone confirm the assay call for CALPINALSNAGNASASA [HC1381] ?
label 0

Hi team, can someone confirm the assay call for CARQKRDWIWAGNASASA [FS-2751] ?
label 1

Hi team, can someone confirm the assay call for CACSHRERRDAGNASASA [FS-584] ?
label 1

Hi team, can someone confirm the assay call for CAGRTWAQPGAGNASASA [HC197] ?
label 0

Hi team, can someone confirm the assay call for CAADGMVSKGAGNASASA [HC668] ?
label 0

Hi team, can someone confirm the assay call for CAVVCTSMSYAGNASASA [HC96] ?
label 0
